Recorded IC50, one value per entry.
Test system: DLD-1
Assay: Antiproliferative activity against human DLD-1 cells assessed as reduction in cell proliferation
Format: functional, cell-based

smi=CC(=O)N(O)CCCCCNC(=O)CCC(=O)N(O)CCCCCNC(=O)CCC(=O)N(O)CCCCCN value="2.9 µM"

Pending molecule:
Exam item: Quick check: IC50 on DLD-1, item `O=C(O)c1ccc(-n2nc(-c3ccccc3O)nc2-c2ccccc2O)cc1` ?
Marked response: 3.4 µM

----------
Test system: SW480
Assay: Antiproliferative activity against human SW480 cells assessed as reduction in cell proliferation incubated for 24 hrs by MTT assay
Format: functional, cell-based
Settings: SW480, 24 h
Property Label: IC50 (µM)
Expressed in µM, but write only the number.

Exam item: Quick one: IC50 for `CC1(C)C=Cc2c(ccc(C(=O)/C=C/c3ccccc3)c2O)O1` ?
Marked response: 20
